target: Zif268 finger 2 variant LRHN finger 2 alpha-helix variant LRHN (full helix only in FIG. 1D) (Mus musculus) (UniProt P08046); settings: [none]; apparent Kd interpolated from microarray signal 0.238
endpoint.name: pKd
Just so you know, pKd here is -log10 of the concentration in molar units; reply with that number alone.

Record request: pKd value, item TATATAGCGGGTGCGTATATATCAAGTCAATCGGTCC (double strand) [Zif268 site GGT] 6.59

---

target: Zif268 finger 2 variant KASN finger 2 alpha-helix variant KASN (full helix only in FIG. 1D) (Mus musculus) (UniProt P08046); conditions: [none]; apparent Kd interpolated from microarray signal 0.636
endpoint.name: pKd
Just so you know, pKd here is -log10 of the concentration in molar units; reply with that number alone.

Record request: pKd value, item TATATAGCGGGCGCGTATATATCAAGTCAATCGGTCC (double strand) [Zif268 site GGC] 5.85
